Assay: chemical genetic growth profiling, strain panel (AID 1159580);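 further: tested at 20 µM; growth read once vehicle control cultures reached saturation at 30 °C; 1 = growth at the plate median or of vehicle wells; lower values mean less growth of the strain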
Details: S. cerevisiae deletion strains, growth OD, locus YOR080W, strain dia2, active compounds read low
About 2,000 (36%) of roughly 5,500 compounds were called active. Inconclusive results (about 18%) are left out. This is one part of the list.
Would you mind telling me the reported normalized growth of each entry?
One number for each entry.

Some solved entries appear below for comparison.
- compound: "Nc1nc(F)nc2c1ncn2[C@@H]1O[C@H](COP(=O)(O)O)[C@@H](O)[C@@H]1O"
  normalized growth: 0.989
- compound: "FC(F)(F)c1cccc(N2CCNCC2)c1"
  normalized growth: 0.98
- compound: "C=CCS(=O)C[C@H](N)C(=O)O (stereo not given in full)"
  normalized growth: 1.01
- compound: "C=C[C@@]1(C)CC(=O)[C@@]2(O)[C@](C)(O1)[C@@H](OC(C)=O)[C@@H](O)C1C(C)(C)CC[C@H](O)[C@@]12C (stereo not given in full)"
  normalized growth: 0.973

// next item, normalized growth requested
State its normalized growth: `Cc1ccc(C(=O)c2ccc(CC(=O)O)n2C)cc1`
1.02

---

Test: chemical genetic growth profiling, strain panel (AID 1159580);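 further: tested at 20 µM; growth read once vehicle control cultures reached saturation at 30 °C; 1 = growth at the plate median or of vehicle wells; lower values mean less growth of the strain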
Settings: S. cerevisiae deletion strains, growth OD, locus YNL006W, strain LST8
Among all 5,500 compounds or so, about 2,000 (36%) were called active. Not shown: some 18% with an inconclusive outcome. Cut-off read from the data, not from the text of the source: active = normalized growth mostly below about 0.91 (no sharp cut-off); inconclusive = no clear call, values can overlap the other calls; inactive = mostly above about 0.92. The list shows a part of the results.
Outcome (select one): active, inactive

A selection of reference data follows.
- molecule: "O=C(Oc1ccc2ccccc2c1C1SCCS1)c1ccc([N+](=O)[O-])o1"
  class-label: "inactive"
- molecule: "CC1=CC(=O)N(c2ccc(OC(F)(F)F)cc2)C1=O"
  class-label: "active"

Short answer needed: outcome of this test for `Clc1cccc(Nc2ncc(-c3ccc4c(c3)OCCCO4)s2)c1` ?
inactive

Short answer needed: outcome of this test for `Cc1ccccc1/C=C/c1c[nH]c2ccccc12` ?
inactive

Short answer needed: outcome of this test for CCOC(=O)c1sc(S(C)=NC(=O)Nc2ccc(Cl)cc2)c2c1CCC=C2 (configuration not stated) ?
inactive

Short answer needed: outcome of this test for `O=C(Nc1cc(Cl)ccc1O)c1ccccc1CSc1ccc(Cl)cc1` ?
inactive

Short answer needed: outcome of this test for `Clc1ccc(Oc2ccnc3cc(Cl)ccc23)cc1` ?
inactive

---

Test: chemical genetic growth profiling, strain panel (AID 1159580);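 further: tested at 20 µM; growth read once vehicle control cultures reached saturation at 30 °C; 1 = growth at the plate median or of vehicle wells; lower values mean less growth of the strain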
Settings: S. cerevisiae deletion strains, growth OD, locus YJL095W, strain BCK1 (second series), active compounds read low
About 2,000 (36%) of roughly 5,500 compounds were called active. Another 18% or so got no clear call; they are omitted. The list shows a part of the results.
measured-metric: normalized growth
Answers are plain numbers.

Some solved entries appear below for comparison.
- molecule: "CN(C/C=C/C#CC(C)(C)C)Cc1cccc2ccccc12"
  measured-metric: "normalized growth"
  meas-value: 0.0681
- molecule: "CC(=O)Oc1c2c(c3c(c1CC=C(C)C)O[C@]14C(=C[C@@H]5CC1C(C)(C)OC4(C/C=C(\\C)C(=O)O)C5=O)C3=O)OC(C)(CCC=C(C)C)C=C2 (some centres not stated)"
  measured-metric: "normalized growth"
  meas-value: 0.971

Fill in normalized growth for each of the 4 molecules listed.
1. CC(=O)O[C@H]1CC[C@@]2(C)C(C[C@@H](OC(C)=O)[C@]3(C)C2CC[C@@]2(C)[C@H](c4ccoc4)OC(=O)[C@H]4O[C@]423)C1(C)C (some centres not stated)
2. COc1cc(NS(C)(=O)=O)ccc1Cc1c2ccccc2nc2ccccc12
3. Clc1ccc(C(Cn2ccnc2)OCc2ccsc2Cl)c(Cl)c1 (configuration not stated)
4. CC(=O)O[C@@H]1CC2C(C)(C)[C@H](O)C=C[C@]2(C)C2CC[C@@]3(C)[C@H](c4ccoc4)OC(=O)C4OC43[C@@]21C (some centres not stated)

[1, 0.986, 0.0564, 1.02]

Fill in normalized growth for each of the 6 molecules listed.
1. Fc1ccc([C@@H]2CCNC[C@H]2COc2ccc3c(c2)OCO3)cc1
2. CC(=O)O[C@@H]1CC2C(C)(C)[C@H](O)CC[C@]2(C)C2CC[C@@]3(C)[C@H](c4ccoc4)OC(=O)C4OC43[C@@]21C (some centres not stated)
3. c1ccc2c(CC3=NCCN3)cccc2c1
4. CCCCC(=O)O[C@]1(C(=O)CO)CCC2C3CCC4=CC(=O)CC[C@]4(C)C3[C@@H](O)C[C@@]21C (some centres not stated)
5. CC[C@@H]1OC(=O)C[C@@H](O)[C@H](C)[C@@H](O[C@@H]2O[C@H](C)[C@@H](O)[C@H](N(C)C)[C@H]2O)[C@@H](CCN2C[C@H](C)C[C@H](C)C2)C[C@@H](C)C(=O)/C=C/C(C)=C\[C@@H]1CO[C@@H]1O[C@H](C)[C@@H](O)[C@@H](OC)[C@H]1OC
6. Cc1cc(/C=C/c2ccc3cc(N(C)C)ccc3[n+]2C)c(C)n1-c1ccccc1

[0.995, 1.02, 0.987, 0.976, 0.996, 1.01]

Fill in normalized growth for each of the 5 molecules listed.
1. Clc1ccc(CO/N=C(/Cn2ccnc2)c2ccc(Cl)cc2Cl)c(Cl)c1
2. O=c1cccc2n1CC1CC2CN2CCCC[C@@H]12 (some centres not stated)
3. Clc1ccc(COC(Cn2ccnc2)c2ccc(Cl)cc2Cl)cc1 (configuration not stated)
4. CC(=O)O[C@@H]1CC2C(C)(C)[C@@H](O)CC[C@]2(C)C2CC[C@@]3(C)[C@H](c4ccoc4)OC(=O)[C@H]4O[C@]43[C@@]21C (some centres not stated)
5. CC12CCCCC1(Br)[N+](=O)N2[O-] (configuration not stated)

0.0624
0.978
0.0566
1.01
0.993
